- tgt: GluN1/2B (Rattus norvegicus, UniProt P35439+Q00960)
- run-description: TEVC electrophysiology, Xenopus oocytes
measured-metric: EC50

# compound, reported
measured = [
    ("CCCCSC[C@@H](N)C(=O)O [10b, S-Butyl D-cysteine]", "> 300 µM"),
    ("CCCCC(=O)NC[C@@H](N)C(=O)O [13a, pentanamido analogue 13a]", "> 300 µM"),
]

Now consider a different compound.
Ask | State the recorded EC50 for this entry: "N[C@@H](COCc1ccccc1)C(=O)O"
Reply | > 300 µM

====

- tgt: GluN1/2C (Rattus norvegicus, UniProt P35439+Q00961)
- run-description: TEVC electrophysiology, Xenopus oocytes
Property: EC50; scope: individual compounds

# compound, tgt, EC50
measured = [
    ("N[C@@H](CSCc1ccccc1)C(=O)O [11a, S-benzyl substituted L-cysteine]", "GluN1/2C (Rattus norvegicus, UniProt P35439+Q00961)", "87 µM"),
    ("CCCCSC[C@H](N)C(=O)O [10a, S-Butyl L-cysteine]", "GluN1/2C (Rattus norvegicus, UniProt P35439+Q00961)", "> 300 µM"),
]

Ask | State the recorded EC50 for this entry: "N[C@@H](COCc1ccccc1)C(=O)O"
Reply | > 300 µM

Ask | State the recorded EC50 for this entry: CCCCC(=O)NC[C@H](N)C(=O)O [13b]
Reply | > 300 µM

Ask | State the recorded EC50 for this entry: CCCCC(=O)NC[C@@H](N)C(=O)O [13a, pentanamido analogue 13a]
Reply | 206 µM

Ask | State the recorded EC50 for this entry: N[C@H](CSCc1ccccc1)C(=O)O [11b, S-benzylated D-cysteine]
Reply | > 300 µM

Ask | State the recorded EC50 for this entry: CCCCSC[C@@H](N)C(=O)O [10b, S-Butyl D-cysteine]
Reply | > 300 µM

====

- tgt: GluN1/2A (Rattus norvegicus)
- run-description: TEVC electrophysiology, Xenopus oocytes
pEC50: −log10 of the molar value.
measured-metric: pEC50

Ask | State the recorded pEC50 for this entry: CCCCC(=O)NC[C@@H](N)C(=O)O [13a, pentanamido analogue 13a]
Reply | < 3.52
